Overview of reported kinase still bound, per cent of control across a group of compounds:
- system-name: UniProt:O75582
- Sequence (O75582 whole entry, looked up): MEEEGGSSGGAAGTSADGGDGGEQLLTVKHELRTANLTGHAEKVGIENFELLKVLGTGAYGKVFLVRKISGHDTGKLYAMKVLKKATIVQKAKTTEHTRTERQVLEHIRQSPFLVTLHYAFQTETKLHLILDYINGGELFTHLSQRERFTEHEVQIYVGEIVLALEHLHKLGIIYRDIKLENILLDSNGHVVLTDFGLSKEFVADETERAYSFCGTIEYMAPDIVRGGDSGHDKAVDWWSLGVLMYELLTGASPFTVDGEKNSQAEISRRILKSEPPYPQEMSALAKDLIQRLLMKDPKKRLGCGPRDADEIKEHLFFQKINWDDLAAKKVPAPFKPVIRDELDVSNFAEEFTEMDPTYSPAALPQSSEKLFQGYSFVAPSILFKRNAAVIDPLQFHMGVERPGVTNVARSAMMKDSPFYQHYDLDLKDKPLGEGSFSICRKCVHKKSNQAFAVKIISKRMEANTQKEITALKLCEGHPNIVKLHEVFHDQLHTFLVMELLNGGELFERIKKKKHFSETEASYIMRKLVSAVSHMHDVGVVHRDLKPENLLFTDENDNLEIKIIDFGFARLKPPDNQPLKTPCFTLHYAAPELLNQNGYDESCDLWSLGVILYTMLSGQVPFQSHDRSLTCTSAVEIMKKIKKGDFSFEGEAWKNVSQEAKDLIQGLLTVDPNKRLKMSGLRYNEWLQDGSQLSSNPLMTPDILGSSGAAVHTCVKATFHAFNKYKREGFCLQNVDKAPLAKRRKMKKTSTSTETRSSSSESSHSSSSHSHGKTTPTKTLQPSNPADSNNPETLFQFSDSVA
- protocol: KINOMEscan competition binding
- measurement-context: compound 10.0 µM
Answer format: numeric, % implied, no suffix.

CNC(=O)Nc1ccc(-c2nc(N3CC4CCC(C3)O4)c3cnn(C4CCC5(CC4)OCCO5)c3n2)cc1 : 86
CCOc1cc(N2CCC(O)CC2)ccc1Nc1ncc2c(n1)N(C)c1ccccc1C(=O)N2C : 100
O=c1[nH]c2ccccc2n1C1CCN(Cc2ccc(-c3nc4cc5[nH]cnc5cc4nc3-c3ccccc3)cc2)CC1 : 100
CCCS(=O)(=O)Nc1ccc(F)c(C(=O)c2c[nH]c3ncc(Cl)cc23)c1F : 100
CCN1CCN(Cc2ccc(NC(=O)c3ccc(C)c(/C=C/c4cnc5[nH]ccc5c4OC)c3)cc2C(F)(F)F)CC1 : 34

Now take the following compound into account.
Could you please provide reported kinase still bound, per cent of control for Cc1cn(-c2cc(C(=O)Nc3ccc(C)c(NC(=O)c4ccno4)c3)cc(C(F)(F)F)c2)cn1 ? Thanks!
100
